- System: Escherichia coli NIHJ
Measurement Label: MIC (µg/mL)
State just the number; it will be interpreted in µg/mL.

In: Request: MIC, test system Escherichia coli NIHJ, entry COC1(NC(=O)C(NC(=O)c2cnc3cccnc3c2O)c2ccc(O)c(O)c2)C(=O)N2C(C(=O)O)=C(CSc3nnc(C)s3)CSC21 (stereo not drawn)
Out: 3.13

In: Look up MIC with Escherichia coli NIHJ for this compound: COC1(NC(=O)C(NC(=O)c2cnc3cccnc3c2O)c2ccc(O)cc2)C(=O)N2C(C(=O)O)=C(CSc3ccc4nnnn4n3)CSC21 (stereo not drawn)
Out: 3.13

Attention now turns to another entry.
In: Entry CO[C@@]1(NC(=O)C(NC(=O)c2cncnc2O)c2ccccc2)C(=O)N2C(C(=O)O)=C(COC(N)=O)CS[C@@H]21 (stereo partly drawn) , system Escherichia coli NIHJ: what MIC was measured?
Out: 12.5

====

- Test system: Escherichia coli NIHJ
Listed next: entries and their corresponding MIC.
# unit: µg/mL | format: bare number

In: Hello, I am looking for reported MIC with Escherichia coli NIHJ for COc1nc(OC)c2c(O)c(C(=O)NC(C(=O)NC3(OC)C(=O)N4C(C(=O)O)=C(CSc5nncs5)CSC43)c3ccc(O)cc3)cnc2n1 (stereo not drawn) [Example 43] . Could you help?
Out: 12.5

In: Form: Entry = COC1(NC(=O)C(NC(=O)c2cnc3cncnc3c2O)c2ccc(O)cc2)C(=O)N2C(C(=O)[O-])=C(C[n+]3ccc(C(N)=O)cc3)CSC21 (stereo not drawn) [Example 37] | System = Escherichia coli NIHJ | MIC = ____
Out: 6.25

Continuing:
In: Short answer please: MIC, Escherichia coli NIHJ, entry COC1(NC(=O)C(NC(=O)c2nnc(O)nc2O)c2ccccc2)C(=O)N2C(C(=O)O)=C(COC(C)=O)CSC21 (stereo not drawn) [Example 49]
Out: 25

In: State its MIC on Escherichia coli NIHJ: COC1(NC(=O)C(NC(=O)c2cnc3cccnc3c2O)c2cc(Cl)c(O)c(Cl)c2)C(=O)N2C(C(=O)O)=C(CSc3nnc(C)s3)CSC21 (stereo not drawn) [Example 40]
Out: 6.25

In: Given the entry COC1(NC(=O)C(NC(=O)c2cnccc2O)C2=CCC=CC2)C(=O)N2C(C(=O)O)=C(COC(N)=O)CSC21 (stereo not drawn) [Example 33] , what MIC was observed with Escherichia coli NIHJ?
Out: 12.5

In: Record lookup: for Escherichia coli NIHJ, what MIC belongs to COC1(NC(=O)C(NC(=O)c2cnc3cccnc3c2O)c2cccc(O)c2)C(=O)N2C(C(=O)O)=C(CSc3nnc(C)s3)CSC21 (stereo not drawn) [Example 31] ?
Out: 3.13

====

Observed MIC for Proteus vulgaris HX 19, reported per entry below.
Give the value, in units of µg/mL, as a plain number.

The examples below pair each entry with its known result.
In: For the compound shown here, CO[C@@]1(NC(=O)[C@H](NC(=O)c2cnc3cccnc3c2O)c2ccccc2)C(=O)N2C(C(=O)[O-])=C(C[n+]3ccccc3)CS[C@@H]21 , give the reported MIC.
Out: 0.78

In: // lookup MIC for COC1(NC(=O)C(NC(=O)c2cnc3cccnc3c2O)C2=CCC=CC2)C(=O)N2C(C(=O)O)=C(CSc3nnc(C)s3)CSC21 (stereo not shown)
Out: 0.39

In: Item COC1(NC(=O)C(NC(=O)c2cnccc2O)c2cccc(O)c2)C(=O)N2C(C(=O)O)=C(CSc3nnc(CO)s3)CSC21 (stereo not shown) has what recorded MIC?
Out: 0.78

Shifting focus to the compound that follows.
In: # input compound: COC1(NC(=O)C(NC(=O)c2cnccc2O)C2=CCC=CC2)C(=O)N2C(C(=O)O)=C(COC(N)=O)CSC21 (stereo not shown) ; wanted: its MIC
Out: 0.39
